Task for the reader: assign each of the following compounds its reported pIC50.
# System: Rat fibroblasts (CREF)
# assay-protocol: Peg3 promoter luciferase inhibitors, potency, dose response, cell-based, HeLa, CREF/GAPDH counter-screen panel (AID 624167)
# test-conditions: CREF/GAPDH counter-screens, run 1, dose range 1, individual replicate IC50 per panel
Just so you know, pIC50 here is -log10 of the concentration in molar units; reply with that number alone.

Reported pIC50 of "CN=c1sc2c(n1C)C(=O)c1ccccc1C2=O" : 5.30

Recorded result, "O=C(OCC(F)(F)F)c1cccc(COc2ccc3ccccc3c2)c1" , pIC50: 4.83

For this compound ( "COc1ccc2c(c1)sc1nc(-c3ccccc3)cn12" ), measured pIC50 is 6.49

// "CCN(CCCl)c1cc(CN(C)C)cc(NC(=O)c2ccc(C(=O)Nc3cc(CN(C)C)cc(N(CC)CCCl)c3)cc2)c1" : pIC50 value = 4.85

Lab book: pIC50 of "CCn1nc(C)cc1-c1nnc(Sc2ncc([N+](=O)[O-])s2)n1C" noted as 5.27

// field: pIC50; key: "CCCCCCCn1c(=N)n(CC(=O)c2ccco2)c2ccccc21" ; value = 4.53

The compound OCC1OC(n2ccc3c(NO)ncnc32)C(O)C1O (stereo not drawn) showed pIC50 equal to 5.56

Lab note: measured pIC50 of "O=C(NC(=O)c1ccccc1)Nc1ccccn1" was 6.17

The recorded pIC50 for "O=C(N/N=C/c1cccs1)c1n[nH]c2c1CCCC2" is 5.29

Kindly note the recorded pIC50 for "C(=NN1CCCCCC1)c1ccc2ccccc2n1" , which is 5.67

Item: "COc1cc(SC)ccc1C(=O)Nc1ncc(C)s1" | pIC50: 5.80

// pIC50 lookup, compound = "Cc1nc2cc(-c3ccccc3)sc2c(=O)n1N" , result: 5.40

Recorded result, "CN(C)c1ccc(/C=C/c2ccc3c4ccccc4ccc3[n+]2-c2ccccc2)cc1" , pIC50: 4.77

get_value(item= "Cc1ccc(-c2cn3cc(C)ccc3n2)cc1" , readout=pIC50) returns 5.99

Value of measured pIC50 for the entry "Cc1csc(NC(=O)c2ccc(N3CCCC3=O)cc2)n1" : 5.54

Value of measured pIC50 for the entry "Cc1cc(C)c2c(N)c(C(=O)Nc3ncc(C)s3)sc2n1" : 5.54

Value of measured pIC50 for the entry "Cc1nc(-c2ccc(NC(=O)c3ccco3)cc2)cs1" : 6.37

The recorded pIC50 for entry "COc1ccc(S(=O)(=O)/N=C2\C=C(Nc3ccc(O)cc3)C(=O)c3ccccc32)cc1" equals 5.86

get_value(item= "O=C(Nc1ccc(N2CCOCC2)cc1)c1cnsn1" , readout=pIC50) returns 5.60

get_value(item= "CCOc1ccc2nc(NC(=O)c3ccccn3)sc2c1" , readout=pIC50) returns 5.55

Lab book: pIC50 of "O=C(COc1ccc2c(c1)CCC2)Nc1ccccn1" noted as 4.53

Sample "COc1cccc(-c2sc3ccccc3c2-c2ccc(OCCN(C)C)cc2)c1" ; pIC50 observed: 4.84

Recorded pIC50 (compound "Brc1ccc(N=Nc2ccc3ccccc3n2)cc1" ): 6.67

Given item "CCCOc1ccc2cc(-c3ccccn3)c(=O)oc2c1" , the value recorded as its pIC50 is 5.96
